System: c-Abl (mouse);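 further: 11-residue human phosphosite peptides and single-mutation variants displayed on the E. coli surface, counted by deep sequencing, each peptide's frequency after selection divided by its frequency in the unselected input library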;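 further: frequency after pTyr selection over input frequency; kinase dosed for 20-30% of maximal phosphorylation in three min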
Test: phosphorylation enrichment, bacterial display (enrichment ratio); higher = better substrate or ligand; peptides without Tyr show the background
Overview of reported phosphorylation enrichment across a group of sequences:

{"seqString": "NTGDFCDLFGG [PTPN11_Y63_Y63C_YF]", "phosphorylation enrichment": 0.655}
{"seqString": "EAIAKYDLKAT [GRB2_Y7_F9L]", "phosphorylation enrichment": 0.617}
{"seqString": "MCITRYERESQ [PRNP_Y218_Q217R]", "phosphorylation enrichment": 0.466}
{"seqString": "ARAHKYHGGGG [HBB_Y146_L142R]", "phosphorylation enrichment": 0.474}
{"seqString": "QRIHDYFEHRF [HCN4_Y554_YF]", "phosphorylation enrichment": 0.625}
{"seqString": "TWNPKYTLRSH [STRN3_Y474]", "phosphorylation enrichment": 0.473}
{"seqString": "QPSALYEDRFL [ASS1_Y83_S79P_YF]", "phosphorylation enrichment": 0.881}
